Entries and their normalized growth
- assay_text: chemical genetic growth profiling, strain panel (AID 1159580);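 further: tested at 20 µM; growth read once vehicle control cultures reached saturation at 30 °C; 1 = growth at the plate median or of vehicle wells; lower values mean less growth of the strain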
- condition_description: S. cerevisiae deletion strains, growth OD, locus YOR061W, strain CKA2, stronger effect = lower value
The campaign covered roughly 5,500 compounds. About 2,000 (36%) were called active. Not shown: some 18% with an inconclusive outcome. The list shows a part of the results.
// no unit, no text: just the number

Past entries and their recorded results:
NS(=O)(=O)c1cc2c(cc1Cl)NC(C(Cl)Cl)NS2(=O)=O (configuration not stated) = 1
C=CCSCC1Nc2cc(Cl)c(S(N)(=O)=O)cc2S(=O)(=O)N1 (configuration not stated) = 1.01
Cc1cccc(Nc2ccccc2C(=O)O)c1C = 0.894

I would be grateful if you could share the reported normalized growth for "N#CC(C#N)=Cc1ccc(-c2ccccc2C(F)(F)F)o1" . 0.907

I would be grateful if you could share the reported normalized growth for "Cc1c(Cl)cccc1Nc1ccccc1C(=O)O" . 0.852

I would be grateful if you could share the reported normalized growth for "COc1ccc(CCN2CCC(Nc3nc4ccccc4n3Cc3ccc(F)cc3)CC2)cc1" . 0.969
